experiment: clinical
measurementSetup: human, in vivo, AUCτ
testReadout: AUC (ng·h/mL)
API: value field is a number in ng·h/mL; no unit string.

## Input Input NS(=O)(=O)Nc1ncnc(OCCOc2ncc(Br)cn2)c1-c1ccc(Br)cc1 , output reported AUC.
## Output 14800

* * *

These compounds were tested on OATP1B1 (Homo sapiens, UniProt Q9Y6L6); IC50 is the recorded read-out.
Sequence (Q9Y6L6 whole entry): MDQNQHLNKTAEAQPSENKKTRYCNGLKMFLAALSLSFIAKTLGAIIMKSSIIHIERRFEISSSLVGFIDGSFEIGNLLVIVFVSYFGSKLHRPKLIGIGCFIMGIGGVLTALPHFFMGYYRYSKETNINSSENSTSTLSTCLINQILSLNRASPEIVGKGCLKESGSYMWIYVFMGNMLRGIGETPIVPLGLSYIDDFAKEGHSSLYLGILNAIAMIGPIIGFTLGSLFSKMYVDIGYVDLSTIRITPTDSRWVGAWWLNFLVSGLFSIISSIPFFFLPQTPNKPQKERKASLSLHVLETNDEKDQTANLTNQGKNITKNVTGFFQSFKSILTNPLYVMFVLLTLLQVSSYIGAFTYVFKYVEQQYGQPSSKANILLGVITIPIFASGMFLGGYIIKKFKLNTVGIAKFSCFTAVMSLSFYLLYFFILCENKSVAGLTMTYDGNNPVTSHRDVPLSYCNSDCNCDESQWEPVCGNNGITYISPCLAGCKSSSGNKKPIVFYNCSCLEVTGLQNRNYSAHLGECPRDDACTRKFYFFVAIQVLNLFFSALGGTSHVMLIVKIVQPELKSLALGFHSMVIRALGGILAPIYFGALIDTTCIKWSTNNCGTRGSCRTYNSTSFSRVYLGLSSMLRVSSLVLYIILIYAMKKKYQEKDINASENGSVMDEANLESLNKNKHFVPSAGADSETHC
Respond numerically; units are µM and should not be typed.

compound="NS(=O)(=O)Nc1ncnc(OCCOc2ncc(Br)cn2)c1-c1ccc(Br)cc1 [ACT-132577]" unitssymbol=µM assayvalue=19.9

## Input In one line, give reported IC50 of the entry CCCNS(=O)(=O)Nc1ncnc(OCCOc2ncc(Br)cn2)c1-c1ccc(Br)cc1 [Macitentan] .
## Output 6.3
